Measured folding stability dG unfold, listed per entry for reference.
- experimentalDetails: folding stability dG unfold from chymotrypsin proteolysis; higher = more stable
Report the figure in kcal/mol without appending any unit label.

monomerSequence	u	folding stability dG unfold
SAGGSAGGSASMTVRATLPNGEEIEFEADVIKADPGGDSVTVYLILPNGGEIPFEVELEEEESAGGSAGGSA [r18_163_TrMRF]	kcal/mol	0.706

Per the records, this sequence ( SAGGSAGGMTSDKPVLPALIRVYYPNEGREETIPVLLGEDMPLEEALRIARELAHPDAKAEILNSAGGSAGG [r6_440_TrMRF] ) has folding stability dG unfold equal to 0.624

Per the records, this sequence ( SAGGSAMKIEVEEFPVLVPPELIPELKDKPGAIVKVKKVKFYAEAPEEEREKLKKELEEKTGIKTESAGGSA [r15_347_TrMRF] ) has folding stability dG unfold equal to 0.0727

Per the records, this sequence ( SAGGKIPKNAKILEVEFDPETGYIRIKVEFYDKNGKLIKKAEITIPILPVPPLSPEDIEKLLKALASSAGGS [r16_697_TrMRF] ) has folding stability dG unfold equal to 3.85

Per the records, this sequence ( SAGGSAGKKPVEFKVKIMIFNPENGDMYMIEMTITIDPDGQIKIKIKLPDPPRLPPGMVIFIMVYISAGGSA [r15_488_TrROS] ) has folding stability dG unfold equal to 5.24

Per the records, this sequence ( SAGGMKKEKVKITIVVPVEDAEKLREALEKLGFKVVEEKENEDGLLTLTVEVDGKKIEIKIVKKEELSAGGS [r16_170_TrROS_Hall] ) has folding stability dG unfold equal to 0.81

Per the records, this sequence ( SAGGSAGGSAMTTVTSTTEIPPSALTVKTSVSTAPDGSLVETTTVVLPDGSVVTTTLSTVASAGGSAGGSAG [r3_7_JUSTAS] ) has folding stability dG unfold equal to 1.19

Per the records, this sequence ( SAGGSAGGKKKYRALITLRSKDGKPIAPIEIETDSPEELLKTAKKIIEEATKENEPVEIKVEEYSAGGSAGG [r6_285_TrMRF] ) has folding stability dG unfold equal to 1.8

Per the records, this sequence ( SAGGHTIWIPFDSPEQAKELANEIARELNDHGLKVKVKVHPDDGWIKVKVDMRNNDKEKKIKIWFPFPSAGG [r13_641_TrROS] ) has folding stability dG unfold equal to 2.44

Per the records, this sequence ( SAGGSAGGSALKNAPGPDPALLKPRPVLVIPIPKDIPLEEAEALAEIFRKLYPDVPVVLDVEGGSAGGSAGG [r6_299_TrMRF] ) has folding stability dG unfold equal to 1.07

Per the records, this sequence ( SAGGSTIENPNGWRIEIDIIPIKVVYRKDPNGKPKEPVAPPVWIIHIKIEFPDKNGEKKEATFMLFSAGGSA [r2_218_TrROS] ) has folding stability dG unfold equal to 4.61

Per the records, this sequence ( SAKTLTIEELAKKLKEELEKKTGKKLSKEELKKKALELAKKLAEEKGLKIKSVKVEEKDGKLTVTVEVESAG [r14_147_TrROS_Hall] ) has folding stability dG unfold equal to 3.26

Per the records, this sequence ( SAGGSAGGSAGPPNQRHEYEIKLTIYDPDNGKKFTIKIPMESPWDMPNFMRKLADNGYIKSAGGSAGGSAGG [r11_668_TrROS] ) has folding stability dG unfold equal to 1.38

Per the records, this sequence ( SMSIKRARLRPEEIEAEIAALEAQGLRVKREPLEVTPVEVPLKLPDGTPRRVEVVEVVFRLELTPLDQPPSA [r9_991_JUSTAS] ) has folding stability dG unfold equal to -0.433
